test system: Human gammaherpesvirus 4; assay: Inhibition of TPA-induced Epstein-Barr virus early antigen activation in Raji cells after 48 hrs; type: functional, organism-based; settings: human gammaherpesvirus 4, Raji
pIC50: −log10 of the molar value.
TEST READOUT: pIC50

COMPOUND: C=C(CC[C@@H](C)[C@H]1CC[C@@]2(C)[C@@H]3CC[C@H]4[C@H](C)[C@@H](OC(C)=O)CC[C@@]45C[C@@]35CC[C@]12C)C(C)C [CYCLOEUCALENOL ACETATE]
pIC50: 8.00

COMPOUND: C=C(CC[C@@H](C)[C@H]1CC[C@@]2(C)[C@@H]3CC[C@H]4C(C)(C)C(=O)CC[C@@]45C[C@@]35CC[C@]12C)C(C)C
pIC50: 8.04

COMPOUND: CC(=O)[C@H]1CC[C@@]2(C)[C@@H]3CC[C@H]4C(C)(C)C(=O)CC[C@@]45C[C@@]35CC[C@]12C
pIC50: 8.05

COMPOUND: CC(C)C(=O)CC[C@@H](C)[C@H]1CC[C@@]2(C)[C@@H]3CC[C@H]4C(C)(C)C(=O)CC[C@@]45C[C@@]35CC[C@]12C
pIC50: 8.05

COMPOUND: COC(CC[C@@H](C)[C@H]1CC[C@@]2(C)[C@@H]3CC[C@H]4C(C)(C)C(=O)CC[C@@]45C[C@@]35CC[C@]12C)C(C)(C)O (stereo partly specified)
pIC50: 8.06

COMPOUND: CC(C)=CCC[C@@H](C)C1=CC[C@@]2(C)[C@@H]3CC[C@H]4C(C)(C)[C@@H](O)CC[C@@]45C[C@@]35CC[C@]12C
pIC50: 8.05
